Measured values drawn from patent US20240400677A1 for this set.

# ASSAY TARGET: T1, human SIRPγ on stably transfected CHO cells (human, UniProt Q9P1W8 29-387)
# T1 construct: also called Human SIRPγ CHO
# T1 sequence (Q9P1W8 29-387 limits assumed): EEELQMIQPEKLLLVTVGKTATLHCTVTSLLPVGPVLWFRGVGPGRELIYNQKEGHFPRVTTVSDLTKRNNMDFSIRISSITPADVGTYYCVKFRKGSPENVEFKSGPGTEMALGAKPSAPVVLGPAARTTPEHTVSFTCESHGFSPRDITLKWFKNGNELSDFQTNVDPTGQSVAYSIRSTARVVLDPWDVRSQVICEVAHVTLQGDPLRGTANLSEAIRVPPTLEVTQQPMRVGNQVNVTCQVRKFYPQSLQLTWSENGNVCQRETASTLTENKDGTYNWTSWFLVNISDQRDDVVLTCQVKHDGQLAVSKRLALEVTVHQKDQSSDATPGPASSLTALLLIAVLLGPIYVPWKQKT
# EXPERIMENT NOTES: flow cytometry, CHO transfectants, anti-human IgG
# Description: Selected antibodies were tested for binding to stably transfected human SIRPγ, SIRPαV1, or SIRPβ1 (co-transfected with DAP12) Chinese hamster ovary (CHO) cells via flow cytometry. A titration of select antibodies was added to the cells and detected using a fluorescently labelled secondary anti-rat IgG antibody or anti-human IgG antibody. Graphs depict the median fluorescence intensity (MFI) at each concentration. […]
QUANTITY KIND: EC50 (read off the curve)

Take a look at these entries with their results.
• Antibody 57 (antibody, V domains shown) VH: QVQLVQSGAEVKKPGASVKVSCKASGYTFTSYYMHWVRQAPGQGLEWMGWINPNSGNAGFAQKFQGRVTMTRDTSTSTVYMELSSLRSEDTAVYYCARGPVYSYGPFDYWGQGTLVTVSS VL: DIQMTQSPSSLSASVGDRVTITCRASQGISTYLAWYQQKPGKAPKLLIYAASTLQSGVPSRFSGSGSGTDFTLTISSLQPEDFATYYCQQSHSAPITFGQGTKVEIK = ~0.6 µg/mL
• Antibody 54 (antibody, V domains shown) VH: QVQLVQSGAEVKKPGASVKVSCKASGYSFSDYYMHWVRQAPGQGLEWMGWMSPNSGNTGYAQKFQGRVTMTRDTSTSTVYMELSSLRSEDTAVYYCARQREEYGHYYYGMDVWGQGTMVTVSS VL: EIVMTQSPATLSVSPGERATLSCRASQSLGSTYLAWYQQKPGQAPRLLIYGASTRATGIPARFSGSGSGTEFTLTISSLQSEDFAVYYCQQYYSSPPTFGQGTKVEIK = ~0.9 µg/mL

Q: For the binder Antibody 96 (antibody, V domains shown) VH: QVQLVQSGAEVKKPGASVKVSCKASGYTFTRYDINWVRQAPGQGLEWMGWMNPNSGNTGYAQKLQGRVTMTRDTSTSTVYMELSSLRSEDTAVYYCARERVGYCSSTSCLHPLDYWGQGTLVTVSS VL: DIQMTQSPSSLSASVGDRVTITCRASQGIRNDLGWYQQKPGKAPKLLIYSASNLQSGVPSRFSGSGSGTDFTLTISSLQPEDFATYYCQQSYDVPLTFGGGTKVEIK , give its reported EC50 (read off the curve).
Result: ~0.4 µg/mL
